# tested target: PDE10A1 (AB 020593) (Homo sapiens)
# Construct: made in house; host or cells: baculovirus / SF21 insect cells (gene synthesized by Entelechon GmbH)
# Sequence (Q9Y233 other isoform, or with tags, fused parts or gaps): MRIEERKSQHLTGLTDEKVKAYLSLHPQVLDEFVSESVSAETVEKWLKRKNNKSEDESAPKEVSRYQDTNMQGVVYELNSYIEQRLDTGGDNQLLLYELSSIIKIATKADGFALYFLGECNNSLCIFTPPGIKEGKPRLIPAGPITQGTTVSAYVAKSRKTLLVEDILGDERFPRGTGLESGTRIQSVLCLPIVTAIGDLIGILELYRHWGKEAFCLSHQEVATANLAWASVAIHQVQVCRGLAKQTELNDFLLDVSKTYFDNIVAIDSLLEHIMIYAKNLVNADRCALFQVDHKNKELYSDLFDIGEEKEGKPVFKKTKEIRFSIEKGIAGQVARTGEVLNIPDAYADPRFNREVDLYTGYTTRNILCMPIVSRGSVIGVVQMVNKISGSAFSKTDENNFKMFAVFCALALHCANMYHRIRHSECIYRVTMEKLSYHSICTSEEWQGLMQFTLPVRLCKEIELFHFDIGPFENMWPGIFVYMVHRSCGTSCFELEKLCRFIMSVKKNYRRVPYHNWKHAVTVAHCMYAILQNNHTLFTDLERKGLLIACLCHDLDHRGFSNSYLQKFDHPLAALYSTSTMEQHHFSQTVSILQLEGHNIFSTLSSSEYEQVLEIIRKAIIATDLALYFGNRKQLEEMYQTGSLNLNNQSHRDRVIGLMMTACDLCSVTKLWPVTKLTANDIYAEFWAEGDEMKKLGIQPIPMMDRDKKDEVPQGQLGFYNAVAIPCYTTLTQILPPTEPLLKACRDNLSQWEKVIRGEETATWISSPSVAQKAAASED
# measurement description: Inhibition of recombinant PDE10A (baculovirus/SF21 system)
# Assay type: biochemical
# condition description: recombinant cytosolic PDE10A, 0.1 μM [3H]-cAMP, 37° C., 30 minutes, SPA; read-out: PDE10A IC50
measured quantity: pIC50
// returns pIC50 (minus log10 of molar concentration), number only

| compound | pIC50 |
| --- | --- |
| COc1ccc2nnc3c(C)nc(-c4ccncc4Cl)n3c2n1 [Example 45] | 7.43 |

Note to self: pIC50 recorded for COc1ccnc2c1nnc1c(C)nc(-c3cc(Cl)ccc3Cl)n12 [Example 113] was 8.52

Reported pIC50 of CCOc1ccc(F)c(-c2nc(C)c3nnc4ccc(OC)nc4n23)c1 [Example 28] : 6.94

The reported value for COc1ccc2nnc3c(C)nc(-c4cnccc4C)n3c2n1 [Example 51] in terms of pIC50 is 6.41
